# procedure summary: NCI Yeast Anticancer Drug Screen. Data for the rad50 strain (AID 155);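 note: 0% = growth of vehicle-only cultures of the same strain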
# measurement parameters: S. cerevisiae rad50 strain growth inhibition; at 50.0 µM; hits give high values
About 79,000 compounds went through this panel and 15% of them were active in at least one assay; those are over-represented in the sample as a whole.
Consider the following molecules; for each one, report its growth inhibition.
Please give a number only; it is taken to be in %.

The molecule identified as `S=C(S)NC1CCCCC1` registered its growth inhibition at -28.9

Entry `CN(C)c1ccccc1N(C)C` — recorded growth inhibition = 5.5

The molecule listed as `O=c1cc(-c2ccc3c(c2)OCO3)oc2ccccc12` has a reported growth inhibition of 20.4

growth inhibition for CSc1nc(-c2ccccc2)c(C(=O)NC(C)CN2CCCCC2)s1 (configuration not stated) is 13.5

Looking up O=C1c2ccccc2C2(O)Nc3c(ccc4ccccc34)C12O (configuration not stated) , I see its growth inhibition listed as 2

Kindly note the recorded growth inhibition for `O=C(Nc1ccc(Cl)c(Cl)c1)Oc1ccc2ccccc2c1` , which is 13.4

Noted for `CC(=O)CCc1ccccc1` : its growth inhibition reads 5.6

Entry under test: `CCOC(=O)CCCCCCCCCCCCCCCCC(=O)OCC` . Its growth inhibition was 30.9

Please fill in: growth inhibition reported for `N#Cc1c(-c2ccccc2)cc(-c2ccc(Cl)cc2)[nH]c1=S` = 5.3

growth inhibition in this record for CC(C)(C)OC(=O)NC(Cc1ccc(OC(C)(C)C)cc1)C(=O)N[C@H]1CC[C@H](C(=O)O)C1 (some centres not stated) : -6.6

Summary for this molecule, `O=c1oc2ccccc2cc1F` : growth inhibition is 16.4

Field growth inhibition (entry CC(=O)C1=C(C)N2C(=NC3=C(CCc4ccccc43)C2c2ccc(F)cc2)S1 (configuration not stated) ) reads -5.6

Consider NC(=O)C(c1ccccc1)c1ccnc2ccccc12 (configuration not stated) . Its measured growth inhibition is 2.05

growth inhibition in this record for `Cc1cc2c(=O)cc(-c3ccccc3)oc2c(C(N)=O)c1C` : 15.3

// recorded growth inhibition for CN(CCc1ccccn1)/[N+]([O-])=N/O (tested in a mixture with another compound) : -30.8

So, `O=C(Nc1cccc2c1[nH]c1c(-c3ccccc3)nccc12)c1ccccc1[N+](=O)[O-]` ? Its growth inhibition was 58.1

Given item `CN1CCC(O)(c2ncc(Br)c3ccccc23)CC1` , the value recorded as its growth inhibition is 17.1

Measured values drawn from PubChem BioAssay (NCI) for this set.
